- TARGET OF ASSAY: ERα (Homo sapiens, UniProt P03372)
- ASSAY SUMMARY: ERE luciferase reporter gene assay in T47D-KBluc cells (target engagement)
- Type: cell-based
- Set-up: T47D human breast cancer cells stably transfected with estrogen responsive element/promoter/luciferase reporter gene; host or cells: T47D-KBluc cells
- ASSAY CONDITIONS: 10% FBS, 24 hours, Table 1 cereblon centric PROTACs, read-out: ER-α Luciferase IC50
pIC50: −log10 of the molar value.
METRIC NAME: pIC50

O=C1CCC(N2C(=O)c3ccc(NCCOCCOCCOc4ccc(Oc5c(-c6ccc(Br)cc6)sc6cc(O)ccc56)cc4)cc3C2=O)C(=O)N1 (stereo not shown)	7.94

1. O=C1CC[C@H](N2Cc3cc(OCC(=O)N4CCN(CCOc5ccc(Oc6c(-c7ccc(Br)cc7)sc7cc(O)ccc67)cc5)CC4)ccc3C2=O)C(=O)N1
2. Cc1nc2c(OCCN3CCN(CCOc4ccc(Oc5c(-c6ccc(Br)cc6)sc6cc(O)ccc56)cc4)CC3)cccc2c(=O)n1C1CCC(=O)NC1=O (stereo not shown)
3. O=C1CCC(N2Cc3c(NCCOCCOCCOCCOc4ccc(Oc5c(-c6ccc(Br)cc6)sc6cc(O)ccc56)cc4)cccc3C2=O)C(=O)N1 (stereo not shown)
Exercise: Sequence the entries by pIC50, beginning with the highest number. Lab note: record answer as labels in requested order.
Key: 1, 2, 3

----------
- TARGET OF ASSAY: ERα (Homo sapiens, UniProt P03372)
- Sequence (P03372 1-595): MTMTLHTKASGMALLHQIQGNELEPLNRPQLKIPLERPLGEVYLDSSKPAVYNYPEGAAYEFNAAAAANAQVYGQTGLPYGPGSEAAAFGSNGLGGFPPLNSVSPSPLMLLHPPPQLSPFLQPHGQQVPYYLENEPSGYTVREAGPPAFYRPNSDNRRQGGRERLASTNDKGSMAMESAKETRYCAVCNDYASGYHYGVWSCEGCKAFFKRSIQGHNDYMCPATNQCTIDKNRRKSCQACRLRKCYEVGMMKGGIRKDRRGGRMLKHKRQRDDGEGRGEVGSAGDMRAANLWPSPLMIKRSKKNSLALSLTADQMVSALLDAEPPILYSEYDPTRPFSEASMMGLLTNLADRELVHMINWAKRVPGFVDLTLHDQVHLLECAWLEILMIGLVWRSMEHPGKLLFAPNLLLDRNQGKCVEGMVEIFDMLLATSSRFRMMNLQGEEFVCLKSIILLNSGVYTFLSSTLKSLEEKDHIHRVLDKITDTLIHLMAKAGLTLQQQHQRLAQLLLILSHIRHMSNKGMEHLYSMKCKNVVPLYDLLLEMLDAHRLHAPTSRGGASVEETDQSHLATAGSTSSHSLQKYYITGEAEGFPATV
- ASSAY SUMMARY: Estrogen receptor-alpha (ERα) degradation assay in MCF7 cells using In-Cell Western assay
- Format: cell-based
- Parameters: assessed for their activity in degrading ERα in MCF-7 cells via western blot; endogenous in cells; host or cells: MCF7 cells
- ASSAY CONDITIONS: ER-alpha degradation in MCF7 cells, 5 days of incubation
METRIC NAME: Dmax

COc1ccc(-c2sc3cc(O)ccc3c2Oc2ccc(N3CCC(CN4CCN(c5ccc6c(c5)CN(C5CCC(=O)NC5=O)C6=O)CC4)CC3)cc2)cc1 (centres unmarked)	50 to 75%
COc1ccc(-c2sc3cc(O)ccc3c2Oc2ccc(OCCN3CCN(CCCNc4ccc5c(c4)CN(C4CCC(=O)NC4=O)C5=O)CC3)cc2)cc1 (centres unmarked)	> 75%

Exercise: Would you kindly share the measured Dmax for O=C1CCC(N2Cc3cc(OCCOCCOc4ccc(Oc5c(-c6ccc(Br)cc6)sc6cc(O)ccc56)cc4)ccc3C2=O)C(=O)N1 (centres unmarked) ?
Key: 50 to 75%

Exercise: Request: O=C1CCC(N2Cc3cc(N4CCN(CC5CCN(c6ccc(Oc7c(-c8ccc(F)cc8)sc8cc(O)ccc78)cn6)CC5)CC4)ccc3C2=O)C(=O)N1 (centres unmarked)
Key: > 75%

Exercise: Quick one: O=C1CCC(N2C(=O)c3ccc(N4CCN(CC5CN(CCOc6ccc(Oc7c(-c8ccc(Br)cc8)sc8cc(O)ccc78)cc6)C5)CC4)cc3C2=O)C(=O)N1 (centres unmarked)
Key: 50 to 75%

Exercise: Same for O=C1CCC(N2Cc3cc(NCCCN4CCN(CCOc5ccc(Oc6c(-c7ccc(F)cc7)sc7cc(O)ccc67)cc5)CC4)ccc3C2=O)C(=O)N1 (centres unmarked)
Key: > 75%

Exercise: Query O=C1CCC(N2Cc3nc(N4CCN(CC5CCN(c6ccc(Oc7c(-c8ccc(Br)cc8)sc8cc(O)ccc78)cc6)CC5)CC4)ccc3C2=O)C(=O)N1 (centres unmarked) next
Key: > 75%

Exercise: Would you kindly repeat that for O=C1CCC(N2C(=O)c3ccc(N4CCN(CC5CCN(c6ccc(Oc7c(-c8ccc(F)cc8)sc8cc(O)ccc78)cc6)CC5)CC4)cc3C2=O)C(=O)N1 (centres unmarked) ?
Key: > 75%
